Each entry below carries its reported IC50.
Target Or Test System: USP7 (Homo sapiens (Human), UniProt Q93009)
Sequence (Q93009 whole entry): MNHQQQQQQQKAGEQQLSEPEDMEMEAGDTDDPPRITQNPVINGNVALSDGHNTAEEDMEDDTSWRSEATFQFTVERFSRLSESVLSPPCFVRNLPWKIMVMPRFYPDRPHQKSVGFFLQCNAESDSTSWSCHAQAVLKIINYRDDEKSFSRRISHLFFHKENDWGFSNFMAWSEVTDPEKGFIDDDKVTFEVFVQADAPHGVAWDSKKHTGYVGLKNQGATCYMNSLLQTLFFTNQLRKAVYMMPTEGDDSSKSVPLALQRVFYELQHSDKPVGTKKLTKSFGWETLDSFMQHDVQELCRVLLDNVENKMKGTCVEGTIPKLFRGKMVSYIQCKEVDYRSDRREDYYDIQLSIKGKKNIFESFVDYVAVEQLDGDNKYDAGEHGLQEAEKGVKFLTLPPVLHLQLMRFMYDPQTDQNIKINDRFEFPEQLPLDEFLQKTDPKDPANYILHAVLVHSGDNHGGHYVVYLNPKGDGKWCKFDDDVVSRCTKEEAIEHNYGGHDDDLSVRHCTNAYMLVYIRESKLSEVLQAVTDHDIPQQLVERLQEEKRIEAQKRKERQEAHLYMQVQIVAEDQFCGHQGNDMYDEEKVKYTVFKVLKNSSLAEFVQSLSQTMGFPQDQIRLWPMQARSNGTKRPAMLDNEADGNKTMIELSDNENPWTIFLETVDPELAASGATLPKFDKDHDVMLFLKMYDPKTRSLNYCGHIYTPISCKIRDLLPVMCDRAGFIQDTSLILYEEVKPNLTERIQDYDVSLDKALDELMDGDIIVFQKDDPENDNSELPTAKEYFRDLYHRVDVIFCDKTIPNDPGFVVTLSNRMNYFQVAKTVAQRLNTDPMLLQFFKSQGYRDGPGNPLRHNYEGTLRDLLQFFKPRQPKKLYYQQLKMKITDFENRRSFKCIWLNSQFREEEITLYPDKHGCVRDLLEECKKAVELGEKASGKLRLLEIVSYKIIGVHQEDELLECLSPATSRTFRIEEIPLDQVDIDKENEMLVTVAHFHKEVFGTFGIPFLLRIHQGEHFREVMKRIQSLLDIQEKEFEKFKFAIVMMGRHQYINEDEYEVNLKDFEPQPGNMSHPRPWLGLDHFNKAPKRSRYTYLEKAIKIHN
Procedure Text: USP7 fluorescence polarisation (FP) biochemical assay, ubiquitin-Lys-TAMRA substrate
Study Conditions: Table 4, biochemical assay; average of at least duplicate experiments; read-out: USP7 IC50
Metric Name: IC50

[[record]]
molecule = "Cn1nc2c(=O)n(CC3(O)CCN(C(=O)C[C@H](c4ccccc4)C(F)(F)F)CC3)cnc2c1-c1ccc(CN)c(C(F)(F)F)c1"
reading = "< 250 nM"

[[record]]
molecule = "C[C@H](CC(=O)N1CCC(O)(Cn2cnc(N3CCOC(C)(C(=O)N(C)C)C3)cc2=O)CC1)c1ccccc1 (stereo partly shown)"
reading = "1000 to 200000 nM"

[[record]]
molecule = "Cn1nc2c(=O)n(CC3(O)CCN(C(=O)CCC4CCC4)CC3)cnc2c1-c1ccc(CN)cc1"
reading = "250 to 999 nM"

[[record]]
molecule = "CCn1nc2c(=O)n(CC3(O)CCN(C(=O)C[C@H](c4ccccc4)C(F)(F)F)CC3)cnc2c1-c1ccc(CN)cc1"
reading = "< 250 nM"


---

Each entry below carries its reported IC50.
Target Or Test System: USP7 (Homo sapiens (Human))
Procedure Text: USP7 fluorescence polarisation (FP) biochemical assay, ubiquitin-Lys-TAMRA substrate
Study Conditions: Table 4, biochemical assay; average of at least duplicate experiments; read-out: USP7 IC50
Metric Name: IC50

[[record]]
mol = "CC(=O)NCCNc1cc(=O)n(CC2(O)CCN(C(=O)C[C@@H](C)c3ccccc3)CC2)cn1"
reading = "1000 to 200000 nM"

[[record]]
mol = "C[C@H](CC(=O)N1CCC(O)(Cn2cnc(N3CCN(Cc4ccccn4)CC3)cc2=O)CC1)c1ccccc1"
reading = "1000 to 200000 nM"

[[record]]
mol = "C[C@H](CC(=O)N1CCC(O)(Cn2cnc(N3CC4(CCCO4)C3)cc2=O)CC1)c1ccccc1"
reading = "1000 to 200000 nM"

[[record]]
mol = "C[C@H](CC(=O)N1CCC(O)(Cn2cnc3c(-c4ccc(C(=O)O)cc4)n(C)nc3c2=O)CC1)c1ccccc1"
reading = "1000 to 200000 nM"

[[record]]
mol = "C[C@H](CC(=O)N1CCC(O)(Cn2cnc(N[C@@H]3CCNC3)cc2=O)CC1)c1ccccc1"
reading = "250 to 999 nM"

[[record]]
mol = "C[C@H](CC(=O)N1CCC(O)(Cn2cnc(/C=C/CN3CC[C@H](N)C3)cc2=O)CC1)c1ccccc1"
reading = "1000 to 200000 nM"

[[record]]
mol = "Cn1nc2c(=O)n(CC3(O)CCN(C(=O)C[C@H](c4ccccc4)C(F)(F)F)CC3)cnc2c1-c1ccc([C@H](N)C(F)(F)F)cc1"
reading = "< 250 nM"

[[record]]
mol = "C=C(C)[C@@H](CC(=O)N1CCC(O)(Cn2cnc3c(-c4ccccc4)n(C)nc3c2=O)CC1)C(F)(F)F"
reading = "1000 to 200000 nM"

[[record]]
mol = "Cn1nc2c(=O)n(CC3(O)CCN(C(=O)C[C@H](c4ccccc4)C(F)(F)F)CC3)cnc2c1-c1ccc(C2(N)CC2)cc1"
reading = "< 250 nM"

[[record]]
mol = "O=C(C(C1CCC1)C1CCC1)N1CCC(O)(Cn2cnc(NCCN3CCCC3)cc2=O)CC1"
reading = "1000 to 200000 nM"

[[record]]
mol = "C[C@H](CC(=O)N1CCC(O)(Cn2cnc3cn(C)nc3c2=O)CC1)c1ccccc1"
reading = "1000 to 200000 nM"

[[record]]
mol = "C[C@H](CC(=O)N1CCC(O)(Cn2cnc(NCc3ccc(Cl)cc3)cc2=O)CC1)c1ccccc1"
reading = "1000 to 200000 nM"

[[record]]
mol = "NCc1ccc(-n2cnc3c(=O)n(CC4(O)CCN(C(=O)C[C@H](c5ccccc5)C(F)(F)F)CC4)cnc32)cc1"
reading = "< 250 nM"

[[record]]
mol = "C[C@H](CC(=O)N1CCC(O)(Cn2cnc(N3CCC(c4ccn[nH]4)CC3)cc2=O)CC1)c1ccccc1"
reading = "1000 to 200000 nM"


---

Procedure Text: Kinetic solubility assay
Format: physicochemical
Study Conditions: PBS buffer pH 7.4 with 2% DMSO, aqueous buffer, kinetic from dmso stock, PBS buffer pH 7.4, 2% DMSO, RT, read-out: KSol
Metric Name: solubility kinetic at 24 h

[[record]]
mol = "CC1(C(=O)N2CCC(O)(Cn3cnc4c(cc(Cl)n4-c4ccccc4)c3=O)CC2)CC1"
reading = "173 µM"


---

Target Or Test System: USP7 (Homo sapiens (Human))
Procedure Text: USP7 fluorescence polarisation (FP) biochemical assay, ubiquitin-Lys-TAMRA substrate
Study Conditions: Table 4, biochemical assay; average of at least duplicate experiments; read-out: USP7 IC50
pIC50: −log10 of the molar value.
Metric Name: pIC50

[[record]]
compound = "C[C@H](CC(=O)N1CCC(O)(Cn2cnc(N3CC4(CN(C)CCO4)C3)cc2=O)CC1)c1ccccc1 [Example 171]"
reading = "3.70 to 6.00"

[[record]]
compound = "CC1(C(=O)N2CCC(O)(Cn3cnc4c(cc(Cl)n4-c4cccc(-n5cc(F)cn5)c4)c3=O)CC2)CC1 [Example 227]"
reading = "> 6.60"

[[record]]
compound = "CS(=O)(=O)c1nc2ncn(CC3(O)CCN(C(=O)CCc4ccccc4)CC3)c(=O)c2s1 [Example 92]"
reading = "3.70 to 6.00"

[[record]]
compound = "Cn1c(Cl)cc2c(=O)n(CC3(O)CCN(C(=O)C4(C)CC4)CC3)cnc21 [Example 209]"
reading = "3.70 to 6.00"

[[record]]
compound = "O=C(c1cnc(C2CC2)o1)N1CCC(O)(Cn2cnc3c(cc(Cl)n3-c3cccc(Br)c3)c2=O)CC1 [Example 213]"
reading = "> 6.60"

[[record]]
compound = "C[C@H](CC(=O)N1CCC(O)(Cn2cnc(N3CCC(O)CC3)cc2=O)CC1)c1ccccc1 [Example 144]"
reading = "3.70 to 6.00"

[[record]]
compound = "CC1(C(=O)N2CCC(O)(Cn3cnc4c(cc(Cl)n4-c4cccc(Br)c4)c3=O)CC2)CC1 [Example 214]"
reading = "6.00 to 6.60"

[[record]]
compound = "Cn1nc2c(=O)n(CC3(O)CCN(C(=O)C[C@H](c4ccccc4)C(F)(F)F)CC3)cnc2c1C1=CCCCC1 [Example 134]"
reading = "> 6.60"

[[record]]
compound = "Cn1nc2c(=O)n(CC3(O)CCN(C(=O)C[C@H](c4ccccc4)C(F)(F)F)CC3)cnc2c1-c1ccccc1 [Example 37]"
reading = "6.00 to 6.60"

[[record]]
compound = "O=C(c1cnc(C2CC2)o1)N1CCC(O)(Cn2cnc3c(cc(Cl)n3-c3ccc(F)cc3)c2=O)CC1 [Example 205]"
reading = "> 6.60"

[[record]]
compound = "Cn1nc2c(=O)n(CC3(O)CCN(C(=O)C[C@H](c4ccccc4)C(F)(F)F)CC3)cnc2c1-c1ccc(CCN)cc1 [Example 87]"
reading = "> 6.60"

[[record]]
compound = "C[C@H](CC(=O)N1CCC(O)(Cn2cnc(N3CC[C@H](N)C3)cc2=O)CC1)c1ccccc1 [Example 12]"
reading = "> 6.60"

[[record]]
compound = "C[C@H](CC(=O)N1CCC(O)(Cn2cnc(NC3CCOC3)cc2=O)CC1)c1ccccc1 (stereo partly drawn) [Example 151]"
reading = "3.70 to 6.00"

[[record]]
compound = "O=C(CCC1CCC1)N1CCC(O)(Cn2cnc(NCCN3CCCC3)cc2=O)CC1 [Example 183]"
reading = "3.70 to 6.00"

[[record]]
compound = "C[C@H](CC(=O)N1CCC(O)(Cn2cnc(/C=C/CN3CCCC3)cc2=O)CC1)c1ccccc1 [Example 51]"
reading = "3.70 to 6.00"


---

Target Or Test System: USP7 (Homo sapiens (Human), UniProt Q93009)
Procedure Text: USP7 fluorescence polarisation (FP) biochemical assay, ubiquitin-Lys-TAMRA substrate
Study Conditions: Table 4, biochemical assay; average of at least duplicate experiments; read-out: USP7 IC50
pIC50: −log10 of the molar value.
Metric Name: pIC50

[[record]]
mol = "CC1(C(=O)N2CCC(O)(Cn3cnc4c(cc(Cl)n4-c4ccc(Cl)cc4)c3=O)CC2)CC1"
reading = "> 6.60"

[[record]]
mol = "CCOC(=O)NCc1ccc(-c2c3ncn(CC4(O)CCN(C(=O)C[C@@H](C)c5ccccc5)CC4)c(=O)c3nn2C)cc1"
reading = "> 6.60"

[[record]]
mol = "CC1(C(=O)N2CCC(O)(Cn3cnc4c(cc(Cl)n4-c4cccc(-n5cc(C(F)(F)F)cn5)c4)c3=O)CC2)CC1"
reading = "3.70 to 6.00"

[[record]]
mol = "C[C@H](CC(=O)N1CCC(O)(Cn2cnc3c(nc(-c4ccccc4)n3C)c2=O)CC1)c1ccccc1"
reading = "3.70 to 6.00"

[[record]]
mol = "CC1(C(=O)N2CCC(O)(Cn3cnc4[nH]c(Cl)cc4c3=O)CC2)CC1"
reading = "3.70 to 6.00"

[[record]]
mol = "C[C@H](CC(=O)N1CCC(O)(Cn2cnc(NC[C@@H]3CCCN3C)cc2=O)CC1)c1ccccc1"
reading = "3.70 to 6.00"

[[record]]
mol = "C[C@H](CC(=O)N1CCC(O)(Cn2cnc(N3CCC4(CC3)COC4)cc2=O)CC1)c1ccccc1"
reading = "3.70 to 6.00"

[[record]]
mol = "C[C@H](CC(=O)N1CCC(O)(Cn2cnc(NCCN3CCC[C@@H]3C)cc2=O)CC1)c1ccccc1"
reading = "> 6.60"

[[record]]
mol = "CC1(C(=O)N2CCC(O)(Cn3cnc4c(cc(Cl)n4-c4ccccc4)c3=O)CC2)CC1"
reading = "6.00 to 6.60"

[[record]]
mol = "O=C(C[C@H](c1ccccc1)C(F)F)N1CCC(O)(Cn2cnc3c(ncn3-c3ccccc3)c2=O)CC1"
reading = "> 6.60"

[[record]]
mol = "Cc1nc2c(=O)n(CC3(O)CCN(C(=O)C[C@H](c4ccccc4)C(F)(F)F)CC3)cnc2n1-c1ccc(CN)cc1"
reading = "> 6.60"

